Target: Kras and SOS1 (biotin-tagged human Kras loaded with GDP, His-tagged human SOS1) (Homo sapiens, UniProt P01116, G12D)
Construct: made in house; host or cells: E. coli (stated for Kras only)
Sequence (P01116 1-188 isoform P01116-2 G12D): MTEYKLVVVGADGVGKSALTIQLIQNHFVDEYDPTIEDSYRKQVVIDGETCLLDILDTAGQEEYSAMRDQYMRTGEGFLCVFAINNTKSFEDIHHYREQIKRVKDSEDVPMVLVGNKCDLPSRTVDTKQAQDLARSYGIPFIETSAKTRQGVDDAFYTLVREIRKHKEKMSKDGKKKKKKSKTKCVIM
Test: Protein-protein interaction inhibition between Kras and SOS1 (KrasGl2D-SOS PPI) using AlphaScreen
Assay type: binding
Conditions: AlphaScreen; biotin-tagged human Kras loaded with GDP, His-tagged human SOS1; read-out: KRAS G12D-SOS PPI IC50
Procedure: Protein-Protein Interaction Inhibition Between Kras and SOS1 (KrasGl2D-SOS PPI) Using AlphaScreen Protein-protein interaction inhibition (PPI) between Kras and SOS1 was measured by energy transfer from nickel-conjugated donor beads to streptavidin-conjugated acceptor beads using biotin-tagged human Kras expressed in E. coli and loaded with GDP after purification and His-tagged human SOS1 enzyme. […]
Positions of bridges follow the written chain, without caps; N, C: chain ends. Non-standard residues stand in square brackets, D forms with d. Residues, ends and D or L forms follow the SMILES beside them. *: point of attachment. hPhe(3,5-F2-4-CF3) = N[C@@H](CCc1cc(F)c(C(F)(F)F)c(F)c1)C(=O)O; hPhe(3-Cl-4-CF3) = N[C@@H](CCc1ccc(C(F)(F)F)c(Cl)c1)C(=O)O; 3Oxa8azabicyclo(3.2.1)octane = C1CC2COCC1N2*; NMePhe(4-Me) = CN[C@@H](Cc1ccc(C)cc1)C(=O)O; NMePhe(4-F) = CN[C@@H](Cc1ccc(F)cc1)C(=O)O; NMeGly(cPent) = CN[C@H](C(=O)O)C1CCCC1; NMeCha = CN[C@@H](CC1CCCCC1)C(=O)O; NMeChg = CN[C@H](C(=O)O)C1CCCCC1; NMeI = CC[C@H](C)[C@H](NC)C(=O)O; NMeD = CN[C@@H](CC(=O)O)C(=O)O; NMeL = CN[C@@H](CC(C)C)C(=O)O; NMeV = CN[C@H](C(=O)O)C(C)C; d(β3hA) = C[C@@H](N)CC(=O)O; NMeAbu = CC[C@H](NC)C(=O)O; NMeS = CN[C@@H](CO)C(=O)O; NMeA = CN[C@@H](C)C(=O)O; Piperidide = C1CCN(*)CC1; Pyrrolidide = C1CCN(*)C1; Ac5c = NC1(C(=O)O)CCCC1; Aze = O=C(O)[C@@H]1CCN1; NcPrGly = O=C(O)CNC1CC1; Isopentyl = CC(C)CC*; Sar = CNCC(=O)O
IC50 class ranges: class A = under 5 nM, class B = from 5 nM up to 100 nM, class C = 100 nM and over

| compound | discrete_label |
| --- | --- |
| CC[C@H](C)[C@@H]1NC(=O)[C@H](CC(C)C)N(C)C(=O)C[C@@H](C(=O)N(C)C)N(C)C(=O)[C@H](C2CCCC2)N(C)C(=O)C2(CCCC2)NC(=O)[C@H](COCCC(C)C)N(C)C(=O)[C@H](CCc2ccc(C(F)(F)F)c(Cl)c2)NC(=O)CN(C)C(=O)[C@H](CC2CCCCC2)N(C)C(=O)[C@@H]2CCN2C(=O)[C@H](C)N(C)C1=O [Compound 250] ([NMeL]I[NMeA][Aze][NMeCha][Sar][hPhe(3-Cl-4-CF3)][NMeS](Isopentyl)[Ac5c][NMeGly(cPent)][NMeD]-NMe2; lactam N-11) | class B |
| CC[C@H](C)[C@@H]1NC(=O)[C@H](CC(C)C)N(C)C(=O)C[C@@H](C(=O)N2CCCC2)NC(=O)[C@H](C(C)C)N(C)C(=O)C2(CCCC2)NC(=O)[C@@H]2CCCN2C(=O)[C@H](CCc2ccc(C(F)(F)F)c(Cl)c2)NC(=O)CN(C)C(=O)[C@H](CC2CCCCC2)N(C)C(=O)CN(C)C(=O)CN(C)C1=O [Compound 508] ([NMeL]I[Sar][Sar][NMeCha][Sar][hPhe(3-Cl-4-CF3)]P[Ac5c][NMeV]D-Pyrrolidide; lactam N-11) | class B |
| CC[C@H](C)[C@@H]1NC(=O)[C@H](C(C)C)N(C)C(=O)C[C@@H](C(=O)N2CCCCC2)N(C)C(=O)[C@H](C2CCCCC2)N(C)C(=O)C2(CCCC2)NC(=O)[C@@H]2CCCN2C(=O)[C@H](CCc2ccc(C(F)(F)F)c(Cl)c2)NC(=O)CN(C)C(=O)[C@H](CC2CCCCC2)N(C)C(=O)CN(C)C(=O)CN(C)C1=O [Compound 1807] ([NMeV]I[Sar][Sar][NMeCha][Sar][hPhe(3-Cl-4-CF3)]P[Ac5c][NMeChg][NMeD]-Piperidide; lactam N-11) | class A |
| CC[C@H](C)[C@@H]1NC(=O)[C@H](CC(C)C)N(C)C(=O)C[C@@H](C)NC(=O)[C@H](C(C)C)N(C)C(=O)C2(CCCC2)NC(=O)[C@@H]2CCCN2C(=O)[C@H](CCc2ccc(C(F)(F)F)c(Cl)c2)NC(=O)CN(C2CC2)C(=O)[C@H](CC2CCCCC2)N(C)C(=O)CN(C)C(=O)CN(C)C1=O [Compound 204] (cyclo([Ac5c][NMeV][d(β3hA)][NMeL]I[Sar][Sar][NMeCha][NcPrGly][hPhe(3-Cl-4-CF3)]P)) | class C |

Categorize the following entry: CC[C@H](C)[C@@H]1NC(=O)[C@H](CC)N(C)C(=O)C[C@@H](C(=O)N2C3CCC2COC3)N(C)C(=O)[C@H](C2CCCCC2)N(C)C(=O)C2(CCCC2)NC(=O)[C@@H]2CCCN2C(=O)[C@H](CCc2ccc(C(F)(F)F)c(Cl)c2)NC(=O)CN(C)C(=O)[C@H](Cc2ccc(C)cc2)N(C)C(=O)CN(C)C(=O)CN(C)C1=O [Compound 1963] ([NMeAbu]I[Sar][Sar][NMePhe(4-Me)][Sar][hPhe(3-Cl-4-CF3)]P[Ac5c][NMeChg][NMeD]-{3Oxa8azabicyclo(3.2.1)octane}; lactam N-11) class A

Query CC[C@H](C)[C@@H]1NC(=O)[C@H](C)N(C)C(=O)C[C@@H](C(=O)N(C)C)N(C)C(=O)[C@H]([C@@H](C)CC)N(C)C(=O)C2(CCCC2)NC(=O)[C@H](Cc2ccc(F)cc2)N(C)C(=O)[C@H](CCc2cc(F)c(C(F)(F)F)c(F)c2)NC(=O)CN(C)C(=O)[C@H](Cc2ccc(C)cc2)N(C)C(=O)[C@@H]2CCN2C(=O)[C@H](C)N(C)C1=O [Compound 1914] ([NMeA]I[NMeA][Aze][NMePhe(4-Me)][Sar][hPhe(3,5-F2-4-CF3)][NMePhe(4-F)][Ac5c][NMeI][NMeD]-NMe2; lactam N-11) next class B

And what about the compound CC[C@H](C)[C@@H]1NC(=O)[C@H](CC(C)C)N(C)C(=O)C[C@@H](C)NC(=O)[C@H](C(C)C)N(C)C(=O)C2(CCCC2)NC(=O)[C@@H]2CCCN2C(=O)[C@H](CCc2ccc(C(F)(F)F)c(Cl)c2)NC(=O)CN(C)C(=O)[C@H](CC2CCCCC2)N(C)C(=O)CN(C)C(=O)[C@@H]2CCCN2C1=O [Compound 185] (cyclo([Ac5c][NMeV][d(β3hA)][NMeL]IP[Sar][NMeCha][Sar][hPhe(3-Cl-4-CF3)]P)) ? class C

----------
Listing: IC50 of selected compounds
Biological target: Kras and SOS1 (biotin-tagged human Kras loaded with GDP, His-tagged human SOS1) (Homo sapiens, UniProt P01116, G12D)
Construct: made in house; host or cells: E. coli (stated for Kras only)
Experiment: Protein-protein interaction inhibition between Kras and SOS1 (KrasGl2D-SOS PPI) using AlphaScreen
Type: binding
Conditions: AlphaScreen; biotin-tagged human Kras loaded with GDP, His-tagged human SOS1; read-out: KRAS G12D-SOS PPI IC50
Positions of bridges follow the written chain, without caps; N, C: chain ends. Non-standard residues stand in square brackets, D forms with d. Residues, ends and D or L forms follow the SMILES beside them. *: point of attachment. hPhe(3-Cl-4-CF3) = N[C@@H](CCc1ccc(C(F)(F)F)c(Cl)c1)C(=O)O; hPhe(4-CF3) = N[C@@H](CCc1ccc(C(F)(F)F)cc1)C(=O)O; NMePhe(4-CN) = CN[C@@H](Cc1ccc(C#N)cc1)C(=O)O; NMePhe(4-Me) = CN[C@@H](Cc1ccc(C)cc1)C(=O)O; NMeCha = CN[C@@H](CC1CCCCC1)C(=O)O; NMeChg = CN[C@H](C(=O)O)C1CCCCC1; NMeI = CC[C@H](C)[C@H](NC)C(=O)O; NMeD = CN[C@@H](CC(=O)O)C(=O)O; NMeL = CN[C@@H](CC(C)C)C(=O)O; NMeV = CN[C@H](C(=O)O)C(C)C; d(β3hA) = C[C@@H](N)CC(=O)O; NMeA = CN[C@@H](C)C(=O)O; Piperidide = C1CCN(*)CC1; Ac5c = NC1(C(=O)O)CCCC1; Aze = O=C(O)[C@@H]1CCN1; NEtG = CCNCC(=O)O; Sar = CNCC(=O)O
Reply numerically in nM, unit not repeated.

Study these solved cases before continuing.
| compound | IC50 (nM) |
| --- | --- |
| CC[C@H](C)[C@@H]1NC(=O)[C@H](C)N(C)C(=O)C[C@@H](C(=O)N(C)C)N(C)C(=O)[C@H]([C@@H](C)CC)N(C)C(=O)C2(CCCC2)NC(=O)[C@H](Cc2ccc(C#N)cc2)N(C)C(=O)[C@H](CCc2ccc(C(F)(F)F)c(Cl)c2)NC(=O)CN(C)C(=O)[C@H](Cc2ccc(C)cc2)N(C)C(=O)[C@@H]2CCN2C(=O)[C@H](C)N(C)C1=O [Compound 1959] ([NMeA]I[NMeA][Aze][NMePhe(4-Me)][Sar][hPhe(3-Cl-4-CF3)][NMePhe(4-CN)][Ac5c][NMeI][NMeD]-NMe2; lactam N-11) | 5.2 |
| CC[C@H](C)[C@@H]1NC(=O)[C@H]([C@@H](C)CC)N(C)C(=O)C[C@@H](C(=O)N2CCCCC2)N(C)C(=O)[C@H](C2CCCCC2)N(C)C(=O)C2(CCCC2)NC(=O)[C@@H]2CCCN2C(=O)[C@H](CCc2ccc(C(F)(F)F)c(Cl)c2)NC(=O)CN(C)C(=O)[C@H](CC2CCCCC2)N(C)C(=O)CN(C)C(=O)CN(C)C1=O [Compound 1671] ([NMeI]I[Sar][Sar][NMeCha][Sar][hPhe(3-Cl-4-CF3)]P[Ac5c][NMeChg][NMeD]-Piperidide; lactam N-11) | 1.1 |

Report IC50 for CC[C@H](C)[C@@H]1NC(=O)[C@H](CC(C)C)N(C)C(=O)C[C@@H](C)NC(=O)[C@H](C(C)C)N(C)C(=O)C2(CCCC2)NC(=O)[C@@H]2CCCN2C(=O)[C@H](CCc2ccc(C(F)(F)F)c(Cl)c2)NC(=O)CN(C)C(=O)[C@H](Cc2ccc(C)cc2)N(C)C(=O)CN(C)C(=O)CN(C)C1=O [Compound 1632] (cyclo([Ac5c][NMeV][d(β3hA)][NMeL]I[Sar][Sar][NMePhe(4-Me)][Sar][hPhe(3-Cl-4-CF3)]P)) please. 2.9

# iterate: CC[C@H](C)[C@@H]1NC(=O)[C@H](CC(C)C)N(C)C(=O)C[C@@H](C(=O)N2CCCCC2)N(C)C(=O)[C@H](C2CCCCC2)N(C)C(=O)C2(CCCC2)NC(=O)[C@@H]2CCCN2C(=O)[C@H](CCc2ccc(C(F)(F)F)c(Cl)c2)NC(=O)CN(C)C(=O)[C@H](CC2CCCCC2)N(C)C(=O)CN(CC)C(=O)CN(C)C1=O [Compound 1227] ([NMeL]I[Sar][NEtG][NMeCha][Sar][hPhe(3-Cl-4-CF3)]P[Ac5c][NMeChg][NMeD]-Piperidide; lactam N-11) 1.3

Try the compound CC[C@H](C)[C@@H]1NC(=O)[C@H](C)N(C)C(=O)C[C@@H](C)NC(=O)[C@H](CC(C)C)N(C)C(=O)C2(CCCC2)NC(=O)[C@@H]2CCCN2C(=O)[C@H](CCc2ccc(C(F)(F)F)cc2)NC(=O)CN(C)C(=O)[C@H](CC2CCCCC2)N(C)C(=O)CN(C)C(=O)CN(C)C1=O [Compound 1090] (cyclo([Ac5c][NMeL][d(β3hA)][NMeA]I[Sar][Sar][NMeCha][Sar][hPhe(4-CF3)]P)) 88
